Tested on: SN12C renal
Experiment: NCI-60 one-dose screen, 48 h
Conditions: 10 µM unless noted
Method: Growth inhibition of the SN12C human tumor cell line is measured as a screen for anti-cancer activity. Cells are grown in 96 well plates and exposed to the test compound for 48 hours. Compounds are tested at a single concentration, which is 10^-5 M for most compounds. The reported endpoint is percent growth (GI% or GIPRCNT), where numbers from 0 - 100% represent growth inhibition, and numbers from -100% - 0 represent cell death. For example, a value of 40 represents 60% growth inhibition. […]
Compounds without any hit were thinned out: in the full panel of roughly 83,000, 20% have a hit. Active and inactive are the calls of the source. Rule for the calls: active = growth percent below 10; inactive = the rest.
Classes used: active, inactive

>>> answerlabel("CN1CCN(Cc2ccc(NC(=O)c3cncc(C#Cc4cnc(N)c5cccnc45)c3)cc2C(F)(F)F)CC1")
"inactive"
>>> answerlabel("COc1cc2c(c(OC)c1OC)-c1ccc(N=NC(N)=S)c(=O)cc1[C@@H](NC(C)=O)CC2")
"inactive"
>>> answerlabel("O=C1/C(=C/c2ccc(Cl)c(Cl)c2)CN(C(=O)CCN2CCC(=NO)CC2)C/C1=C\\c1ccc(Cl)c(Cl)c1")
"active"
>>> answerlabel("C=C1CC[C@@H]2[C@](C)(COC(C)=O)[C@H](OC(C)=O)CC[C@@]2(C)[C@@H]1CC(Nc1ccc(S(=O)(=O)Nc2nc(C)cc(C)n2)cc1)C1=CCOC1=O (some centres undefined)")
"inactive"
>>> answerlabel("CC/C(=C(\\c1ccc(O)cc1)c1ccc(OCCN(C)CCN(C)C(=O)CCCCC(=O)c2c(C)[nH]c(/C=C3\\N=C(c4ccc[nH]4)C=C3OC)c2C)cc1)c1ccccc1")
"inactive"
>>> answerlabel("CN(C)c1ccc(/C=C(\\C#N)c2nc3ccccc3s2)cc1")
"inactive"
>>> answerlabel("COc1ccc(CN(c2ccc(C)cc2)C2OC(=O)c3ccccc32)cc1OC (centres undefined)")
"inactive"
>>> answerlabel("CC/C=C\\C[C@H](F)C/C=C1/C(=O)C=C[C@@H]1C/C=C\\CCCC(=O)O")
"inactive"
>>> answerlabel("C=C1CCC2C3(C)COC(c4ccc(OC)cc4Br)OC3CCC2(C)C1/C=C/C1=CCOC1=O (centres undefined)")
"inactive"
>>> answerlabel("Cn1c(=O)c2[nH]c(C(O)C(O)C(O)C(O)CO)nc2n(C)c1=O (centres undefined)")
"inactive"
>>> answerlabel("COc1ccc(C(=O)/C=C/c2cc3ccccc3[nH]c2=O)cc1")
"inactive"
>>> answerlabel("Cc1nn(-c2ccccc2)c2nc(C)n(-c3ccc(Br)cc3)c(=O)c12")
"inactive"
>>> answerlabel("O=C(Nc1nc(-c2ccccc2)cc(-c2ccc(Cl)cc2)n1)c1ccncc1")
"inactive"
>>> answerlabel("NC(=S)N/N=C/c1ccc(OCc2ccccc2)cc1")
"inactive"
>>> answerlabel("COc1cc(C2CC(=O)Nc3c2cnn3Cc2ccco2)cc2c1OCCO2 (centres undefined)")
"inactive"
>>> answerlabel("C(=N\\Nc1nnn(Cc2ccccc2)n1)/c1ccccc1")
"inactive"
>>> answerlabel("CC1(C)CC(C(=O)OCCCCCCCCCCC[P+](c2ccccc2)(c2ccccc2)c2ccccc2)C(C)(C)N1O (centres undefined)")
"active"
>>> answerlabel("COc1ccc(-c2cnoc2-c2cc(OC)c3c(c2)OCCO3)cc1")
"active"
>>> answerlabel("COc1ccc(/C=C2\\N=C3SC=C(N)N3C2=O)cc1")
"inactive"

----------
Tested on: DU-145 prostate
Assay: NCI-60 one-dose screen, 48 h (100 = growth as untreated, 0 = no growth, -100 = all killed)
Conditions: 10 µM unless noted
The panel holds about 83,000 compounds, 20% with a hit somewhere; the sample as a whole holds those more often.
growth values by entry
quantity: growth (%)

>>> readoutvalue("N#Cc1c(N)nc(N)nc1Nc1ccc(Br)cc1")
98.7
>>> readoutvalue("COC(=O)C12C3C(=O)N(c4ccc(OC)cc4)C(=O)C3C(c3cn(-c4ccccc4)nc3C)N1[C@H](c1cn(-c3ccccc3)nc1C)[C@@H]1C(=O)N(c3ccc(OC)cc3)C(=O)[C@@H]12 (stereo not given in full)")
109
>>> readoutvalue("CN(C)CCOc1ccc(-c2nc3ccc(-c4nc5ccc(N6CCN(C)CC6)cc5[nH]4)cc3[nH]2)cc1")
82.4
>>> readoutvalue("COc1cc(-c2cc(-c3nc4ccc(Cl)cc4[nH]3)[nH]n2)cc(OC)c1OC")
57.8
>>> readoutvalue("O=C1C(=O)N(CCCCn2cc(CO)nn2)c2ccccc21")
108
>>> readoutvalue("COc1ccc(/C=C/C(=O)c2ccc(NC(=O)c3cc4cc5ccccc5nc4s3)cc2)cc1OC")
106
>>> readoutvalue("CCCCCCCCCCCCCCCCCCNC(=O)[C@H]1CSC(c2ccc(OC)c(F)c2)N1 (stereo not given in full)")
67.1
>>> readoutvalue("CSc1[nH]c2ncnc(N)c2c1C#N")
101
>>> readoutvalue("CCCN(CCC)CN(CCC)CCC")
106
>>> readoutvalue("CN1Cc2c(cc(CN3CCCCC3)n2C)C(c2ccc(Br)cc2)C1 (stereo not given)")
96.5

----------
Tested on: HOP-62 NSCLC
Assay: NCI-60 one-dose screen, 48 h (100 = growth as untreated, 0 = no growth, -100 = all killed)
Settings: 10 µM unless noted
Compounds without any hit were thinned out: in the full panel of roughly 83,000, 20% have a hit.
Rule: met for growth not less than 90%, not met for anything less.

>>> answerlabel("COCCOC(=O)C1=C(C)NC(=S)NC1c1ccc2c(c1)OCO2 (stereo not given)")
"met"
>>> answerlabel("Cc1cc(Nc2nc(N3CCOCC3)nc3ccccc23)n[nH]1")
"not met"
>>> answerlabel("CNC(=O)c1cc(Oc2ccc3nc(NC(=O)Nc4ccc(N5CCC(N(C)C)CC5)cc4)sc3c2)ccn1")
"met"

----------
System: CAKI-1 renal
Test: NCI-60 one-dose screen, 48 h
Conditions: 10 µM unless noted
This is part of a sample that, as a whole, favours compounds with a hit. Of some 83,000 tested, about 20% had one in any assay. The source made the active and inactive calls. The calls were made as follows: active = growth percent below 10; inactive = the rest.
Possible outcomes: active, inactive

>>> answerlabel("CCN(CC)CCCC(C)Nc1ccnc2c(OC)cccc12 (stereo unspecified)")
"inactive"
>>> answerlabel("O=C(O)c1ccccc1Nc1cccc(S(F)(F)(F)(F)F)c1")
"inactive"
>>> answerlabel("COc1ccc(S(=O)(=O)NCCCNc2nccc(-c3c(-c4cccc(N)c4)nc4sccn34)n2)cc1")
"inactive"
>>> answerlabel("CCN(CC)CCC(=O)c1ccc(OC)c2ccccc12")
"inactive"
>>> answerlabel("C[C@@H]1CCC2=C(CCC[C@]2(C)C(=O)O)[C@@]1(C)CCc1ccoc1")
"inactive"
>>> answerlabel("CC[C@H](Nc1cc(C)nc(N)n1)c1nc2cccc(NCc3ccc(C(=O)NO)cc3)c2c(=O)n1-c1ccccc1")
"inactive"
>>> answerlabel("CCOC(=O)N1CCN(c2nc(Nc3cc(C)[nH]n3)c3ccccc3n2)CC1")
"inactive"
>>> answerlabel("OC(c1cccc(C(F)(F)F)c1)c1cnccc1NC1CCCCCC1 (stereo unspecified)")
"inactive"
>>> answerlabel("Cc1ccn2c(-c3csc(Nc4cccc(O)c4)n3)c(C)nc2c1")
"inactive"
>>> answerlabel("Cc1cc2cc3cc(C)c(N(C)C)cc3nc2cc1N(C)C")
"inactive"
>>> answerlabel("COc1ccc(C(=O)c2sc3nc4c(c(C(F)(F)F)c3c2N)CN(C(C)=O)CC4)cc1OC")
"inactive"
>>> answerlabel("C(=N\\Nc1nnn(Cc2ccccc2)n1)/c1ccccc1")
"inactive"
>>> answerlabel("CSc1ccc(N=C=C(c2ccccc2)c2ccccc2)cc1")
"inactive"
>>> answerlabel("C(=N\\Nc1ccccn1)/c1ccccn1")
"inactive"
>>> answerlabel("c1ccc2sc(SCCCn3ccnc3)nc2c1")
"inactive"
>>> answerlabel("O=C1/C(=C/c2ccccc2)CN(CCC(=O)N2C/C(=C\\c3ccccc3)C(=O)/C(=C/c3ccccc3)C2)C/C1=C\\c1ccccc1")
"inactive"
>>> answerlabel("Cc1cc(N/N=C/c2nc(-c3ccc(Cl)cc3)oc2C)c2cc(Cl)ccc2n1")
"inactive"
>>> answerlabel("COc1ccc(-n2c(C)nc3c(c(C)nn3-c3ccccc3)c2=O)cc1")
"inactive"
>>> answerlabel("CC[C@@H](C)OC(=O)c1nn(C(C)=O)c2ccccc12")
"inactive"
>>> answerlabel("Cc1cc(Nc2nc(-c3cccnc3)nc3ccccc23)n[nH]1")
"active"
>>> answerlabel("Brc1cccc(-c2nc(-c3ccc4c(c3)OCCO4)co2)c1")
"inactive"
>>> answerlabel("Cc1ccc2c(NCCCN(C)C)c3c(C)nn(C)c3nc2c1")
"inactive"
>>> answerlabel("Nc1cc(O)cc2cccnc12")
"inactive"
>>> answerlabel("CC1=C(C)C(=O)OC([C@](C)(O)[C@]2(O)CC[C@@]3(O)[C@@H]4C[C@H]5O[C@]56CC=CC(=O)[C@]6(C)[C@H]4CC[C@]23COC(=O)c2ccc(C)o2)C1 (stereo partly specified)")
"active"
>>> answerlabel("COc1cc(/C=C2\\CN(C(=O)CCN3CCC(=NO)CC3)C/C(=C\\c3cc(OC)c(OC)c(OC)c3)C2=O)cc(OC)c1OC")
"active"
>>> answerlabel("CNc1nc(C)c(-c2nc(Nc3cccc(S(N)(=O)=O)c3)ncc2F)s1")
"inactive"
>>> answerlabel("CN1CCN(c2ccc3nc(-c4ccc5nc(-c6ccc(OCCC(C)(C)C)cc6)[nH]c5c4)[nH]c3c2)CC1")
"inactive"
>>> answerlabel("CCN1CCN(Cc2ccc(NC(=O)Nc3nc4ccc(Oc5ccnc(C(=O)NC)c5)cc4s3)cc2C(F)(F)F)CC1")
"active"
>>> answerlabel("COc1ccc(N(Cc2cc(OC)c(OC)c(OC)c2)C2OC(=O)c3ccccc32)cc1 (stereo unspecified)")
"inactive"
>>> answerlabel("CCN(CC)c1ccc(/C=C/C2=[N+](C)c3ccccc3C2(C)C)cc1")
"active"
>>> answerlabel("COc1ccc2[nH]c(=O)c(/C=C/C(=O)c3ccc(Nc4nccc(-c5ccc6ccccc6c5)n4)cc3)cc2c1")
"inactive"
>>> answerlabel("S=c1[nH]nc(CSc2ncnc3c2c(-c2ccccc2)cn3-c2ccc(Cl)cc2)o1")
"inactive"
>>> answerlabel("c1ccc(Sc2ncnc3ccccc23)cc1")
"inactive"
>>> answerlabel("CC/C=C\\C[C@H](F)C/C=C1/C(=O)C=C[C@@H]1C/C=C\\CCCC(=O)O")
"inactive"
>>> answerlabel("NS(=O)(=O)c1ccc(-n2ncc3c(=O)[nH]c(CN4CCN(c5cc6c(cc5F)c(=O)c(C(=O)O)cn6C5CC5)CC4)nc32)cc1")
"inactive"
>>> answerlabel("CC1(C)OCC2OC3(C(=O)O)OC(C)(C)OC3C2O1 (stereo unspecified)")
"inactive"
>>> answerlabel("Oc1ccccc1/C=N/Nc1ccc2ccccc2n1")
"inactive"
>>> answerlabel("COc1cc(OC)c(/C=C/S(=O)(=O)Cc2cnc(OC)c(N)c2)c(OC)c1")
"inactive"
>>> answerlabel("CCN(C(=O)CN1CCN(c2cc3c(cc2F)c(=O)c(C(=O)O)cn3CC)CC1)c1nc(-c2ccccc2)cs1")
"inactive"
>>> answerlabel("O=S(=O)(NCCCNc1cc(-c2cn(-c3ccccc3)nc2-c2cccc(O)c2)ccn1)c1ccccc1")
"inactive"
>>> answerlabel("Oc1ccccc1N=Cc1c(O)ccc2ccccc12")
"inactive"

Data origin, for the record: PubChem BioAssay (NCI)
